PROTOCOL_DETAILS: Toxicokinetics of patidegib and metabolite IPI-230 in plasma after twice daily dermal application for 13 weeks
Type: in vivo, Gottingen Minipig
COND: female, Gottingen, minipig, plasma, topical or ocular, 80 mg/kg/day, Gottingen Minipig plasma, Day 14, Group 4, 80 mg/kg/day dermal twice daily, sex F; read-out: Mean Patidegib AUC0-24
PARAMETER_MEASURED: AUC(0-t) (µg·h/mL)
Give bare numbers, in µg·h/mL.

Given CC1=C2C[C@H]3[C@@H](CC[C@@H]4C[C@H](NS(C)(=O)=O)CC[C@@]43C)[C@@H]2CC[C@@]2(C1)O[C@@H]1C[C@H](C)CN[C@H]1[C@H]2C [patidegib] , state its recorded AUC(0-t).
6.82

Data credit: patent US11413283B2
